- Test system: Jak2 (UniProt O60674)
- Sequence (O60674 whole entry, looked up): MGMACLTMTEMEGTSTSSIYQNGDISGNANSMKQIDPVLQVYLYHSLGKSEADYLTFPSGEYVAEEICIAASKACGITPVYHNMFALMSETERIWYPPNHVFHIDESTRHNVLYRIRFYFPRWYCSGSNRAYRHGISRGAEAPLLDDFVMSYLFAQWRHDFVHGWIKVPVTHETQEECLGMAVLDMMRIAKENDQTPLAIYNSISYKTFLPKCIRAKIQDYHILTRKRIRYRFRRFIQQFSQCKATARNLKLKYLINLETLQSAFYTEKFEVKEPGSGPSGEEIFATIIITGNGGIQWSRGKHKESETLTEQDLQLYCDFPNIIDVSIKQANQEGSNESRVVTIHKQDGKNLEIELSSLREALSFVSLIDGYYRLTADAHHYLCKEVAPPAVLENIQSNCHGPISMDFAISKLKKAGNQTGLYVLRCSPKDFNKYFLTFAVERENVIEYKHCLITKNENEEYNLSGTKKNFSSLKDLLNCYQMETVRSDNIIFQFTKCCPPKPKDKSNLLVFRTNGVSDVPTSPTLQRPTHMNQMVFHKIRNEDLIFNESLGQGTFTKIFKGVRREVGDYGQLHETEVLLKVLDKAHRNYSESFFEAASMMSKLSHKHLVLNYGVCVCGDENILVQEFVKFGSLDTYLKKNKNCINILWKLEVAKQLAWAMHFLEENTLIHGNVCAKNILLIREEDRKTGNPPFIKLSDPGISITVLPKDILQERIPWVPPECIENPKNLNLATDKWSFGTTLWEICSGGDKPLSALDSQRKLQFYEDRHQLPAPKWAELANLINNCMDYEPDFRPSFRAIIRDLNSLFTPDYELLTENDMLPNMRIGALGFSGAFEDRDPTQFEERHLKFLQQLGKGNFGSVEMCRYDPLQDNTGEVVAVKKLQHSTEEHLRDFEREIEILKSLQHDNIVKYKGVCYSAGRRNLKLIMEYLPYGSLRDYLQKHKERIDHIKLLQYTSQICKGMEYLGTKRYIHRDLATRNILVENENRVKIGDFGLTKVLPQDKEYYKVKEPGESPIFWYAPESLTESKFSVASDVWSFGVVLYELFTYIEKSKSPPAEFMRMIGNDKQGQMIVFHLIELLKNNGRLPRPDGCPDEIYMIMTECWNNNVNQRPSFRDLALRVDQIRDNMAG
- Test description: phosphorylation enrichment, bacterial display (enrichment ratio); higher = better substrate or ligand; peptides without Tyr show the background;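 note: 11-residue human phosphosite peptides and single-mutation variants displayed on the E. coli surface, counted by deep sequencing, each peptide's frequency after selection divided by its frequency in the unselected input library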;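 note: frequency after pTyr selection over input frequency; kinase dosed for 20-30% of maximal phosphorylation in three min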
Entries and their phosphorylation enrichment
Answer as a number with no unit attached.

# annotated cases, reported phosphorylation enrichment shown
biopolymer_sequence="ARVANYHRDGP [CAT_Y386_Q387H]" endpoint_value=0.491
biopolymer_sequence="RLDPVYFVAPA [LAMC2_Y250]" endpoint_value=1.73
biopolymer_sequence="TDTQLYGRFGS [ITGA2B_Y384_G380D]" endpoint_value=0.645
biopolymer_sequence="VQDPAYLRDIN [OPRK1_Y369_D374N]" endpoint_value=0.766
biopolymer_sequence="SARFPYLMAEK [LDHB_Y173_R172P]" endpoint_value=0.504

Prompt: If you can, please state the reported phosphorylation enrichment value of FSNVLYRPRGP [TMIGD2_Y197_A202P_YF] .
Response: 0.959

Prompt: And what about the sequence QRIFQYIQSRF [DYRK1B_Y273_YF] ?
Response: 1.58
